Attribution: patent US5708063A

- experiment: Photochromic PMMA cast film: initial coloration density, maximum absorption wavelength and fatigue life in xenon fadeometer (Example 9)
- Format: physicochemical
- experimentalParameters: time for color density to fall to half of initial value; PMMA cast film 0.1 mm, xenon fadeometer, no stabilizer
Listed below: T1/2 values for each entry.
Unit h implied. Number only.

Previously resolved entries follow.
# compound, T1/2 [h]
records = [
    ("CCC(C(=O)OCCc1ccc2ccccc2c1)N1C(=O)C2=C(C)c3ccsc3C3(C4CC5CC(C4)CC3C5)C2C1=O (stereo not drawn) [(A), reference compound]", 24),
    ("CCOC(=O)C12CC3CC(C1)C1(c4c([N+](=O)[O-])csc4C(C4CC4Br)=C4C(=O)N(CC(F)(F)F)C(=O)C41)C(C(=O)OCC)(C3)C2 (stereo not drawn)", 72),
]

Continue with the compound presented below.
Asked: Field request: T1/2 | item: N#CCOCN1C(=O)C2=C(C3CC3c3ccccc3)c3sccc3C3(C2C1=O)C1(Cl)CCC3(Cl)CC1 (stereo not drawn)
Given back: 69

====

- experiment: Fatigue life of photochromic PMMA cast film with ultraviolet stabilizer, xenon fadeometer (Examples 11-14)
- Assay type: physicochemical
- experimentalParameters: PMMA film, UV stabilizer Cyasorb UV1084, 0.2 part
observedProperty: T1/2 (h)
Unit h implied. Number only.

Previously resolved entries follow.
# compound, T1/2 / h
rows = [
    ("CCC(C(=O)OCCc1ccc2ccccc2c1)N1C(=O)C2=C(C3CC3)c3ccsc3C3(C4CC5CC(C4)CC3C5)C2C1=O (stereo not shown)", 244),
    ("O=C1OC(=O)C2C1=C(C1CC1)c1cc([N+](=O)[O-])sc1C21C2CC3CC(C2)CC1C3 (stereo not shown)", 228),
]

Asked: Field request: T1/2 | item: O=C1OC(=O)C2C1=C(C1CC1)c1c(sc3ccccc13)C21C2CCC1CC2 (stereo not shown)
Given back: 235

Asked: Field request: T1/2 | item: COC(=O)C(C)N1C(=O)C2=C(C3CC3(C)C)c3ccoc3C3(C4CCC3(Cl)CC4)C2C1=O (stereo not shown)
Given back: 320

====

- experiment: Fatigue life of photochromic PMMA cast film with ultraviolet stabilizer, xenon fadeometer (Examples 11-14)
- Format: physicochemical
- experimentalParameters: PMMA film, UV stabilizer Cyasorb UV1084, 0.2 part
Listed below: T1/2 values for each entry.
Unit h implied. Number only.

Previously resolved entries follow.
# compound, valueUnit, T1/2
data = [
    ("O=C(CCCCN1C(=O)C2=C(C3CC3)c3ccsc3C3(C4CC5CC(C4)CC3C5)C2C1=O)OCCc1ccc2ccccc2c1 (stereo not drawn)", "h", 210),
    ("O=C1OC(=O)C2C1=C(C1CC1)c1cc(Br)sc1C21C2CC3CC(C2)CC1C3 (stereo not drawn)", "h", 220),
]

Continue with the compound presented below.
Asked: Field request: T1/2 | item: O=C1OC(=O)C2C1=C(C1CC1C(F)(F)F)c1sc(Br)cc1C21C2CCC1CC2 (stereo not drawn)
Given back: 200

====

- experiment: Photochromic PMMA cast film: initial coloration density, maximum absorption wavelength and fatigue life in xenon fadeometer (Example 9);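 for Initial color density: initial color density is an absorbance value so the % unit is wrong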
- Format: physicochemical
- experimentalParameters: PMMA cast film 0.1 mm, xenon light, no stabilizer
Initial color density of 0.8% or higher: TRUE. Under 0.8%: FALSE.

Worked set:
# compound, answerLabel
measured = [
    ("Cc1cc2c(s1)C1(C3CC4CC(Cl)(C3)CC1(Cl)C4)C1C(=O)OC(=O)C1=C2C1CC1 (stereo not shown) [(58)]", "TRUE"),
    ("O=C1OC(=O)C2C1=C(C1CC1)c1c(sc3c1CCCC3)C21C2CCCC1CCC2 (stereo not shown) [(54)]", "TRUE"),
    ("CC1=C2C(=O)N(CC#N)C(=O)C2C2(c3occc31)C1CCC2CC1 (stereo not shown) [(D), reference compound]", "TRUE"),
    ("Cc1cc2c(n1C)C1(C3CC4CC(F)(C3)CC1(F)C4)C1C(=O)N(C3CCC([N+](=O)[O-])CC3)C(=O)C1=C2C1CC1 (stereo not shown) [(40)]", "FALSE"),
    ("CC1=C2C(=O)N(CCCCC(=O)OCCc3ccc4ccccc4c3)C(=O)C2C2(c3sccc31)C1CC3CC(C1)CC2C3 (stereo not shown) [(B), reference compound]", "FALSE"),
]

Here is the next item to consider.
Asked: Hello, I need to know if N#CCOCN1C(=O)C2=C(C3CC3c3ccccc3)c3sccc3C3(C2C1=O)C1(Cl)CCC3(Cl)CC1 (stereo not shown) [(14)] has measured Initial color density not below 0.8%. Thanks!
Given back: FALSE
